Documented inhibition across a set of molecules
assay: inhibitors of TNFa-induced NFkB p65 translocation, primary screen, imaging, HUVEC, MLSMR starter and 10KST1 sets (AID 438); settings: HUVEC TNFa-induced p65 nuclear translocation; at 2 µM, active compounds read high, 0% TNFa-plus-vehicle, 100% no-TNFa wells;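 further: compound added about 3h40 before a 20 min TNFalpha stimulation; signal is the nuclear over cytoplasmic p65 intensity ratio per well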
Number in %, nothing else.

{"Molecule": "COc1ccc(C2c3c(-c4ccccc4O)n[nH]c3C(=O)N2CCc2ccc(OC)c(OC)c2)cc1 (stereo unspecified)", "inhibition [%]": -22.4}
{"Molecule": "COc1ccc(/C=N/n2c(SC)nnc2-c2ccccc2)cc1C", "inhibition [%]": -0.9}
{"Molecule": "CC(=O)N1CCc2cc(S(=O)(=O)CCC(=O)Nc3cccc(F)c3)ccc21", "inhibition [%]": -1.4}
{"Molecule": "Cc1cc(Cl)ccc1OCCCC(=O)N1CCOCC1", "inhibition [%]": -1.5}
{"Molecule": "CCOC(=O)N1CCC(NC(=O)Cn2cc3c(n2)CCC(C)C3)CC1 (stereo unspecified)", "inhibition [%]": -11.9}

Record "COC(=O)c1oc2ccc(Br)cc2c1NC(C)=O" , field inhibition: -0.8

Record COC(=O)C1C2C=CC3(CN(CC4CCCO4)C(=O)C13)O2 (stereo unspecified) , field inhibition: 4
